# abundance fitness values compiled below
B1: Gamma-crystallin C, residues 4 to 79; numbered along this chain, P07315 (parent)
chain: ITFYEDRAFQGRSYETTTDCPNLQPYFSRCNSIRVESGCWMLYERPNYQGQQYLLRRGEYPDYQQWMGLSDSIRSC

Variants of: B1
method: abundance fitness (aPCA) (normalised: wild type 0, dead -1); higher = more abundant; growth selection in yeast, the domain comes from the species named
condition_set: Homo sapiens
Field format: numeric only.

Sample answers from the record:
• W66A = 0.039
• S70M = -0.132
• T2V = 0.049
• R7P = 0.219
• G38R = -0.153

According to the records, this variant R74L displays abundance fitness of 0.023

According to the records, this variant I33E displays abundance fitness of -0.676

According to the records, this variant G50A displays abundance fitness of -0.276

According to the records, this variant L55K displays abundance fitness of -0.853

According to the records, this variant Q49C displays abundance fitness of 0.33

According to the records, this variant Q64T displays abundance fitness of -0.004

According to the records, this variant E59M displays abundance fitness of -0.029

These measurements were taken from the Human Domainome abundance scans (Beltran et al. 2025).
